# tested on: RSV F on RSV-A2 virus (Respiratory syncytial virus, RSV-A2, UniProt P03420 26-574)
# assay: cell-based or functional assay
Recorded Neutralization IC50 (RSV subtype A) by entry

| binder | Neutralization IC50 (RSV subtype A) |
| --- | --- |
| ADI-41800 (antibody, V domains shown) VH: QVQLVQSGAEVKKPGASVKVSCKASGYTFTDYYMHWVRQAPGQGLEWLAWINPYTGGTNYAQKFQGRVTLTRDTSVSTTYMEVTRLRSDDTAVYYCARGESFHHWGQGTLVTVSS VL: QSALTQPASVSGSPGQSITISCTGTSSDIGGYDYVSWYQQHPGKVPKLMIYEVSTRPSGVSIRFSGSKSGNTASLTISGLQAEDEADYYCSSYTRSTITSVVFGGGTKLTVL | > 25 µg/mL |
| ADI-41790 (antibody, V domains shown) VH: QVQLVQSGAEVKKPGSSVKVSCKASGGTFSNYGISWVRQAPGQGLERLGGIIPIYGTANHAQNFQGRVTITADESTSTAYMELSSLRSEDTAVYYCARDGTFVRYYGMDVWGQGTTVTVSS VL: EIVLTQSPATLFLSPGERATLSCRASQSVSNYLAWFQQKPGQAPRLLIYDTSIRATGIPARFSGSGSGTDFTLTISSLEPEDFAFYYCQQRSNWPPTFGGGTKLEIK | > 25 µg/mL |
| ADI-41600 (antibody, V domains shown, also called Ab 874; Antibody Number 874) VH: EVQLLESGGNMVQPGKSLRLSCAASGFTFSNYGMHWVRQAPGKGLEWVAVISKDGNNEHYADSVRARFTVSRDNSKNTLFLQMNSLRPEDTAVYYCAIGGLSGSYFGEYFQHWGRGTLVTVSS VL: DIQMTQSPSSMSASLGDRVTITCRASQGISTWLAWYQQKPGEAPKLLIYAAFGLQSGVPSRFSGSGSGTDFTLTINNLQPEDFATYYCQQAISFPFTFGGGTKVEIK | > 25 µg/mL |
